- System: HOP-62 NSCLC
- TEST_DESCRIPTION: NCI tumour cell line growth inhibition, 48 h
QUANTITY_NAME: GI50

// input: 2 molecules below; output: GI50 for each
1. CC(=O)N1CCN(C2=Nc3ccccc3CO2)C1=S
2. CO[C@H](C(=O)[C@@H](O)[C@@H](C)O)[C@@H]1Cc2cc3cc(O[C@H]4C[C@@H](O[C@H]5C[C@@H](O)[C@H](O)C(C)O5)[C@H](O)C(C)O4)c(C)c(O)c3c(O)c2C(=O)[C@H]1O[C@H]1C[C@@H](O[C@H]2C[C@@H](O[C@H]3C[C@@H](OC)[C@H](O)C(C)O3)[C@@H](O)C(C)O2)C(O)(O)C(C)O1 (some centres undefined)

1. > 100 µM
2. 0.0513 µM

* * *

- System: U251 CNS
- TEST_DESCRIPTION: NCI tumour cell line growth inhibition, 48 h
QUANTITY_NAME: TGI

c1ccc(SC2(Sc3ccccc3)CCCC2)cc1    > 100 µM
Cc1nc2ccc(CN(C)c3ccc(C(=O)N[C@@H](CCC(=O)O)C(=O)O)s3)cc2c(=O)[nH]1    > 100 µM
COc1ccc2oc(=N)c(C(=O)Nc3cccc4ccccc34)cc2c1    50.2 µM
O=C(COc1ccc(OCC(=O)N2C(=O)CC(=O)N(c3ccccc3)C2=S)cc1)N1C(=O)CC(=O)N(c2ccccc2)C1=S    > 100 µM
O=C(CP(c1ccccc1)c1ccccc1)c1cccc(C(=O)CP(c2ccccc2)c2ccccc2)c1    > 100 µM
CC1=NN(C(=O)CSc2nnc(SCC(=O)N3N=C(C)CC3(O)c3ccccc3)s2)C(O)(c2ccccc2)C1 (stereo unspecified)    > 100 µM
O=S(=O)(Nc1ncccn1)c1ccc(N=Nc2ccc(O)c3ncccc23)cc1    30.4 µM
COc1cc2c(/C=N\N=C(N)N)c(Cl)[nH]c2cc1C    17.7 µM

// input: 3 molecules below; output: TGI for each
1. O=[As](O)(O)c1ccc(NCc2ccccc2)cc1
2. COc1ccc(-c2[nH]ncc2-c2cc3c(c(OC)c2)OCC(=O)N3)cc1
3. C1=C\SS/C=C\SS/C=C\SS/C=C\SS/1

1: > 100 µM; 2: > 100 µM; 3: > 100 µM

// input: 7 molecules below; output: TGI for each
1. O=C(O)CN(c1ccccc1)S(=O)(=O)c1ccc(NC(=O)c2ccccc2)cc1
2. Cc1c2cc[nH]c(=O)c2c(C)c2c1[nH]c1cc(OCCN3CCN(C)CC3)ccc12
3. C=CC(=O)Nc1ccc(Nc2nccc(-c3ccc(N4CCCC4)c(C#N)c3)n2)cc1
4. CCC(C)[C@@H](NCc1ccccc1)[C@H](OCc1ccccc1)[C@@H]1COC(C)(C)O1 (stereo partly specified)
5. Cc1ccc(C)c(NC(=O)C(=O)CC(=O)C2CCOC2=O)c1 (stereo unspecified)
6. Nc1ncnc2c1ncn2C1OC(COP(=O)(O)CP(=O)(O)O)C(O)C1O (stereo unspecified)
7. CC(C)(C)OC(=O)CN1CCNCCNCC1

1: > 100 µM; 2: 6.66 µM; 3: > 25 µM; 4: 51.1 µM; 5: > 100 µM; 6: > 100 µM; 7: > 100 µM

// input: 3 molecules below; output: TGI for each
1. CCCCCCCCCCCOC(=S)NC(C)C
2. CCN(CC)CCNC(=O)c1ccccc1NC(=O)C(=O)Nc1ccccc1C(=O)NCCN(CC)CC
3. COc1cc(CCc2cccnc2)cc(OC)c1OC

["30.2 µM", "> 100 µM", "> 100 µM"]

* * *

- Tested on: OVCAR-5 ovarian
- TEST_DESCRIPTION: NCI tumour cell line growth inhibition, 48 h
QUANTITY_NAME: TGI

Answered examples (3):
CC(=O)N1CCN(C2=Nc3ccccc3CO2)C1=S    > 100 µM
COc1ccc2oc(=N)c(C(=O)Nc3cccc4ccccc34)cc2c1    > 100 µM
C[n+]1c(/C=C\C=C\N2CCCCC2)sc2ccccc21    > 35.2 µM

// input: 6 compounds below; output: TGI for each
1. O=P([O-])(O)OP(=O)([O-])O.[NH-][C@H]1CCCC[C@@H]1[NH-].[OH-].[OH-].[Pt+4]
2. O=C(/C=C/c1ccc(B(O)O)cc1)/C=C/c1ccc(B(O)O)cc1
3. N#Cc1cccc(N2C(=O)c3c(c(-c4ccccc4)c(-c4ccc(Sc5ccc(-c6c(-c7ccccc7)c7c(c(-c8ccccc8)c6-c6ccccc6)C(=O)N(c6cccc(C#N)c6)C7=O)cc5)cc4)c(-c4ccccc4)c3-c3ccccc3)C2=O)c1
4. O=C1NC(N/N=C\C(O)C(O)C(O)CO)=N/C1=C/c1ccccc1 (stereo unspecified)
5. C=C(C)[C@@H]1CC[C@]2(C(=O)O)CC[C@]3(C)[C@H](CC[C@@H]4[C@@]5(C)CC(=O)C(C)(C)[C@@H]5CC[C@]43C)[C@@H]12
6. CCCCCCCCCCCOC(=S)NC(C)C

63.2 µM
20.3 µM
> 100 µM
> 100 µM
> 25 µM
52.5 µM

// input: 2 compounds below; output: TGI for each
1. CO[C@H](C(=O)[C@@H](O)[C@@H](C)O)[C@@H]1Cc2cc3cc(O[C@H]4C[C@@H](O[C@H]5C[C@@H](O)[C@H](O)C(C)O5)[C@H](O)C(C)O4)c(C)c(O)c3c(O)c2C(=O)[C@H]1O[C@H]1C[C@@H](O[C@H]2C[C@@H](O[C@H]3C[C@@H](OC)[C@H](O)C(C)O3)[C@@H](O)C(C)O2)C(O)(O)C(C)O1 (stereo partly specified)
2. O=C(O)c1ccccc1.[Ag]

> 25 µM
45.1 µM

* * *

- System: NCI-H460 lung
- TEST_DESCRIPTION: NCI tumour cell line growth inhibition, 48 h
QUANTITY_NAME: TGI

Answered examples (4):
Cn1cc(-c2nonc2-c2c[nH]c3ccccc23)c2ccccc21    7.78 µM
O=C1C=CC2CCC1C2 (stereo not given)    > 100 µM
Cc1c2cc[nH]c(C(F)(F)F)c2cc2c1nc1ccccc12    > 125 µM
COc1c2c(c3c(c1C1OC(C)[C@@H](C)O1)CC(C)(C)O3)C(=O)c1ccccc1C2=O (stereo not given in full)    > 100 µM

# input for lookup
Given "CCOC(=O)c1cn(-c2ccccc2)c(=S)n2c1nc1ccccc12" , respond with its TGI.
> 100 µM

* * *

- Tested on: HOP-92 NSCLC
- TEST_DESCRIPTION: NCI tumour cell line growth inhibition, 48 h
For each of the compounds below, state its TGI.

Answered examples (3):
CCOC(=O)c1ccc(N=NN(C)C(=O)C(C)N)cc1 (stereo unspecified)    > 100 µM
CCOC(=O)c1cnc(-n2[nH]c(C)c(CCO)c2=O)[nH]c1=O    > 100 µM
O=C(COc1ccc(OCC(=O)N2C(=O)CC(=O)N(c3ccccc3)C2=S)cc1)N1C(=O)CC(=O)N(c2ccccc2)C1=S    > 100 µM

// input: 2 compounds below; output: TGI for each
1. COc1c2c(c3c(c1C1OC(C)[C@@H](C)O1)CC(C)(C)O3)C(=O)c1ccccc1C2=O (stereo partly specified)
2. CC1CC2C3CC(F)C4=CC(=O)C=CC4(C)C3(F)C(O)CC2(C)C1(O)C(=O)COC(=O)C(C)(C)C (stereo unspecified)

89.7 µM
> 100 µM

// input: 3 compounds below; output: TGI for each
1. COc1ccc(-c2nc(N)c(C#N)c3c2CCS(=O)(=O)c2ccc(C)cc2-3)cc1OC
2. Cc1ccc(C)c(NC(=O)C(=O)CC(=O)C2CCOC2=O)c1 (stereo unspecified)
3. CCC1(C)NN=c2s/c(=C/c3ccc(OC)cc3)c(=O)n2N1 (stereo unspecified)

> 100 µM
> 100 µM
96.3 µM

// input: 5 compounds below; output: TGI for each
1. CCC(C)[C@H](NC(=O)[C@H](Cc1ccccc1)NC(=O)N(CC)c1ccccc1)C(=O)N[C@@H](CC(C)C)C(=O)OC (stereo partly specified)
2. COc1cc(/C(Cl)=C/C=C/C(=O)c2c(C)[n+]([O-])c3ccc(Cl)cc3[n+]2[O-])cc(OC)c1OC
3. COc1ccc(S(=O)(=O)NC(C)C(=O)O)cc1 (stereo unspecified)
4. CCCC(=O)O
5. Cc1c2cnccc2c(C)c2c1c1cc(C3OCCCO3)ccc1n2C

> 100 µM
28.1 µM
> 100 µM
14200 µM
1.66 µM

// input: 7 compounds below; output: TGI for each
1. O=C(NCCCCCCCCNC(=O)c1cnc2ccccc2n1)c1cnc2ccccc2n1
2. CC(C)(C)OC(=O)NCCNC1=CC(=O)c2nc3ccccc3c3ccnc1c23
3. CCOc1ccccc1NC(=O)CCC(=O)OC
4. COc1c2cc([N+](=O)[O-])cc1CNC(=O)CN1CCOCCOCCN(CCOCCOCC1)CC(=O)NC2
5. C=CCNC(=S)Nc1sc2c(c1C(=O)OCC)CC(C)CC2 (stereo unspecified)
6. CCOC(=O)c1cn(-c2ccccc2)c(=S)n2c1nc1ccccc12
7. Cc1[nH]ncc1-c1cc2nc(C3CC4CCN3CC4)[nH]c(=O)c2s1 (stereo unspecified)

1: > 100 µM; 2: 42.5 µM; 3: > 100 µM; 4: > 100 µM; 5: > 100 µM; 6: 47.7 µM; 7: > 100 µM

Write down measured TGI (HOP-92 NSCLC) for this compound. "C#CCC[C@@H]1O[C@@]1(C)CC/C=C(\C)CC/C=C/C=O"
63.5 µM

This collection of values is drawn from PubChem BioAssay (NCI).
